MEASURED ON: T1, human Ror2 (human, UniProt Q01974 34-403, limits assumed)
T1 construct: also called hROR2; receptor tyrosine kinase-like orphan receptor 2
MEASUREMENT NOTES: ELISA, human Ror2, pH 6.0; also: unit not given here
MEASURED METRIC: Affinity ELISA pH 6.0
Lab note: write the figure by itself, no unit.

LC-F097D (antibody, V domains shown) VH: EVQLQQSGPELVKPGASVKISCKTSGYTFTEYTMHWMKQSHRKSLEWIGGINTNNGGTGYNQKFKGKATLTVDKSSSTAYMELRSLTSEDSAVYFCARGSLYSYGNSYFDYWGQGTLVTVSS VL: QIVLTQSPAIMSASPGEKVTITCSATSSVSYMHWFQQKPGTSPKLWIYGTSNLASGVPARFSGSGSGTSYSLTISRMEAEDAATYYCQQRSSYPFTDGQGTKVEIK | 0.19

Field: next binder
Recall and state the measured Affinity ELISA pH 6.0 for LC-V029E (antibody, V domains shown) VH: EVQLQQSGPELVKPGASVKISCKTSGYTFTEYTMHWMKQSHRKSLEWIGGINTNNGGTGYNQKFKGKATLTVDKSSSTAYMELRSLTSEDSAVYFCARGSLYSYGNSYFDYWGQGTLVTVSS VL: QIVLTQSPAIMSASPGEKVTITCSATSSESYMHWFQQKPGTSPKLWIYGTSNLASGVPARFSGSGSGTSYSLTISRMEAEDAATYYCQQRSSYPFTFGQGTKVEIK .
0.406
